Provide the reported Vd of each item.
# assayProcedure: Pharmacokinetic study, oral and intravenous administration in mice
# Design: species or system ICR mice
# conditionDetails: male, ICR, mouse, in vivo, iv, 5 mg/kg
One number for each entry, in L/kg.

[[record]]
compound = "CON(C)Cc1nn2ccnc(Nc3cc([C@H]4CC[C@@H](OC(=O)NC(C)C)C4)[nH]n3)c2c1F [Compound 6]"
endpointresult = 0.52


Tell me the measured Vd of CONCc1nn2ccnc(Nc3cc([C@H]4CC[C@@H](OC(=O)NC(C)C)C4)[nH]n3)c2c1F [Compound 5] , please.
7.58

----------
# assayProcedure: Pharmacokinetic study, oral and intravenous administration in mice
# Parameters: species or system ICR mice
# conditionDetails: male, ICR, mouse, in vivo, iv, 5 mg/kg
Provide the reported AUC(0-t) of each item.
Give bare numbers, in ng·h/mL.

[[record]]
molecule = "CONCc1nn2ccnc(Nc3cc([C@H]4CC[C@@H](OC(=O)NC(C)C)C4)[nH]n3)c2c1F [Compound 5]"
endpointresult = 6770


# ---- query molecule ----
Tell me the measured AUC(0-t) of CON(C)Cc1nn2ccnc(Nc3cc([C@H]4CC[C@@H](OC(=O)NC(C)C)C4)[nH]n3)c2c1F [Compound 6] , please.
13200

----------
# assayProcedure: Pharmacokinetic study, oral and intravenous administration in mice
# Set-up: species or system ICR mice
# conditionDetails: mouse, in vivo; ICR male mice, oral administration, 30 mg/Kg; read-out: Peak concentration Cmax
propertyMeasured: Cmax (µg/mL)
Numbers only, in µg/mL.

Tell me the measured Cmax of COCc1cc(C(=O)Nc2cc([C@H]3CC[C@@H](OC(=O)NC(C)C)C3)[nH]n2)n(C)n1 [PF-07104091, reference compound] , please.
6.32

----------
# assayProcedure: Pharmacokinetic study, oral and intravenous administration in mice
# Parameters: species or system ICR mice
# conditionDetails: mouse, in vivo; ICR male mice, intravenous administration, 5 mg/Kg; read-out: Clearance CL
propertyMeasured: clearance (mL/min/kg)
Give bare numbers, in mL/min/kg.

Tell me the measured clearance of COCc1cc(C(=O)Nc2cc([C@H]3CC[C@@H](OC(=O)NC(C)C)C3)[nH]n2)n(C)n1 [PF-07104091, reference compound] , please.
50.3

----------
# assayProcedure: Pharmacokinetic study, oral and intravenous administration in mice
# Set-up: species or system ICR mice
# conditionDetails: male, ICR, mouse, in vivo, po, 30 mg/kg
# Description: This study used ICR male mice as test animals. The plasma concentrations of the test compounds and the reference compound in mice were quantitatively determined at different time points using the LC-MS/MS method following intravenous injection or oral administration to evaluate the pharmacokinetic characteristics of the test compounds in mice. ICR mice (male, 20-30 g, 6-8 weeks old, Beijing Charles River). […]
propertyMeasured: AUC(0-t) (µg·h/mL)
Numbers only, in µg·h/mL.

[[record]]
compoundstructurestring = "CONCc1nn2ccnc(Nc3cc([C@H]4CC[C@@H](OC(=O)NC(C)C)C4)[nH]n3)c2c1F"
propertymeasured = "AUC(0-t)"
unitabbrev = "µg·h/mL"
endpointresult = 52.6


# ---- query molecule ----
Tell me the measured AUC(0-t) of `CON(C)Cc1nn2ccnc(Nc3cc([C@H]4CC[C@@H](OC(=O)NC(C)C)C4)[nH]n3)c2c1F` , please.
155
